Overview of reported melting point across a group of compounds:

O=C(c1ccccc1)c1cc(Cl)ccc1OCc1nc(-c2ccccc2)no1 = 108 to 110 °C
CCOc1ccc(-c2noc(COc3ccc(Cl)cc3C(=O)c3ccccc3)n2)cc1 = 80 to 82 °C
Cc1cc(F)c(-c2noc(COc3ccc(Cl)cc3C(=O)c3ccccc3)n2)cc1F = 87 to 89 °C
CC(C)c1ccc(-c2noc(COc3ccc(Cl)cc3C(=O)c3ccccc3)n2)cc1 = 110 to 112 °C

Kindly review the next compound as well.
INPUT: Look up melting point for this compound: O=C(c1ccccc1)c1cc(Cl)ccc1OCc1nc(-c2ccc(I)cc2)no1
OUTPUT: 124 to 126 °C
